- system tested: Proprotein convertase subtilisin/kexin type 6 (Homo sapiens, UniProt P29122)
- Sequence (P29122 whole entry): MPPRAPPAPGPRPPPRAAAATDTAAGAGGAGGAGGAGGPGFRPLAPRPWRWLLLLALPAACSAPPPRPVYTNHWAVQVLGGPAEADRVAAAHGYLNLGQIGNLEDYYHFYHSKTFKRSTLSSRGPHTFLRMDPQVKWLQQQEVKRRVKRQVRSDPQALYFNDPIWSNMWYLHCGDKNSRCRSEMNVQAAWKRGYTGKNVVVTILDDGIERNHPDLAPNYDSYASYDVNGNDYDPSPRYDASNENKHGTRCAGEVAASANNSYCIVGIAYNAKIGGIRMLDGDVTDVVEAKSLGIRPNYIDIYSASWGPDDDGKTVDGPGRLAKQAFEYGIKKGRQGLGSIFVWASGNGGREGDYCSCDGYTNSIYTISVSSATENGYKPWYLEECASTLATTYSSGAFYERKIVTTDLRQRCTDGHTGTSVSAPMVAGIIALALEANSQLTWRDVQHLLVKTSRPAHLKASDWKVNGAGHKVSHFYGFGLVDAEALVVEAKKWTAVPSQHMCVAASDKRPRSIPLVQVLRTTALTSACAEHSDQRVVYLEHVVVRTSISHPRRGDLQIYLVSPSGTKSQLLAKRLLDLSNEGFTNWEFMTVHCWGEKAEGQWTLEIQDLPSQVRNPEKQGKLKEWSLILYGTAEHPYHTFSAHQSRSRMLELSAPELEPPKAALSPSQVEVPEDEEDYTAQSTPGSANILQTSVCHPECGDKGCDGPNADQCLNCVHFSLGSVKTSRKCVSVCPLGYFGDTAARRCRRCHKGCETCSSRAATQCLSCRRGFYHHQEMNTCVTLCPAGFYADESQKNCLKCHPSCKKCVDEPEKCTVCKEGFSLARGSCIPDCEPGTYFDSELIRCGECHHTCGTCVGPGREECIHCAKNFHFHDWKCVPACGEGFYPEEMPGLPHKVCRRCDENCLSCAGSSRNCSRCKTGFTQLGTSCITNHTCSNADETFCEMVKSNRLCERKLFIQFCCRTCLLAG
- assay method text: Inhibition of human recombinant PACE4 expressed in drosophila schneider 2 cells using pyroGlu-Arg-Thr-Lys-Arg-AMC as substrate after 1 hr
pKi: −log10 of the molar value. Square brackets hold non-standard residues; d marks the D form. Peptide text beside a SMILES is read from it. Phe(4-guanidino) = N=C(N)Nc1ccc(C[C@H](N)C(=O)O)cc1; Nle = CCCC[C@H](N)C(=O)O

| compound | pKi |
| --- | --- |
| CC(=O)N[C@H](CC(C)C)C(=O)N[C@H](CC(C)C)C(=O)N[C@H](CC(C)C)C(=O)N[C@H](CC(C)C)C(=O)N[C@@H](CCCNC(=N)N)C(=O)N[C@H](C(=O)N[C@@H](CCCCN)C(=O)N[C@@H](CCCNC(=N)N)C(N)=O)C(C)C | 4.85 |
| CC(=O)N[C@@H](CC(C)C)C(=O)N[C@@H](CC(C)C)C(=O)N[C@@H](CC(C)C)C(=O)N[C@@H](CC(C)C)C(=O)N[C@@H](CCCNC(=N)N)C(=O)N[C@H](C(=O)N[C@@H](CCCCN)C(=O)N[C@@H](Cc1ccc(NC(=N)N)cc1)C(N)=O)C(C)C (Ac-LLLLRVK[Phe(4-guanidino)]-NH2) | 6.02 |
| CC(=O)N[C@@H](CC(C)C)C(=O)N[C@@H](CC(C)C)C(=O)N[C@@H](CC(C)C)C(=O)N[C@@H](CC(C)C)C(=O)N[C@@H](CCCNC(=N)N)C(=O)N[C@H](C(=O)N[C@@H](CCCCN)C(=O)N[C@@H](CCCNC(=N)N)C(N)=O)C(C)C | 7.70 |
| CCCC[C@H](NC(C)=O)C(=O)N[C@@H](CCCC)C(=O)N[C@@H](CC(C)C)C(=O)N[C@@H](CCCC)C(=O)N[C@@H](CCCN=C(N)N)C(=O)N[C@H](C(=O)N[C@@H](CCCCN)C(=O)N[C@@H](CCCN=C(N)N)C(N)=O)C(C)C | 7.22 |
| CC(=O)N[C@@H](CC(C)C)C(=O)N[C@@H](CC(C)C)C(=O)N[C@@H](CC(C)C)C(=O)N[C@H](CC(C)C)C(=O)N[C@@H](CCCNC(=N)N)C(=O)N[C@H](C(=O)N[C@@H](CCCCN)C(=O)N[C@@H](CCCNC(=N)N)C(N)=O)C(C)C | 4.85 |
| CC(=O)N[C@@H](CC(C)C)C(=O)N[C@H](CC(C)C)C(=O)N[C@@H](CC(C)C)C(=O)N[C@@H](CC(C)C)C(=O)N[C@@H](CCCN=C(N)N)C(=O)N[C@H](C(=O)N[C@@H](CCCCN)C(=O)N[C@@H](CCCN=C(N)N)C(N)=O)C(C)C | 6.15 |
| CCCC[C@H](NC(=O)[C@H](CC(C)C)NC(=O)[C@H](CC(C)C)NC(=O)[C@H](CC(C)C)NC(C)=O)C(=O)N[C@@H](CCCN=C(N)N)C(=O)N[C@H](C(=O)N[C@@H](CCCCN)C(=O)N[C@@H](CCCN=C(N)N)C(N)=O)C(C)C (Ac-LLL[Nle]RVKR-NH2) | 7.57 |
| CCCC[C@H](NC(=O)[C@H](CC(C)C)NC(C)=O)C(=O)N[C@@H](CCCC)C(=O)N[C@@H](CC(C)C)C(=O)N[C@@H](CCCN=C(N)N)C(=O)N[C@H](C(=O)N[C@@H](CCCCN)C(=O)N[C@@H](CCCN=C(N)N)C(N)=O)C(C)C (Ac-L[Nle][Nle]LRVKR-NH2) | 6.77 |

---

- system tested: Furin (Homo sapiens, UniProt P09958)
- Sequence (P09958 whole entry): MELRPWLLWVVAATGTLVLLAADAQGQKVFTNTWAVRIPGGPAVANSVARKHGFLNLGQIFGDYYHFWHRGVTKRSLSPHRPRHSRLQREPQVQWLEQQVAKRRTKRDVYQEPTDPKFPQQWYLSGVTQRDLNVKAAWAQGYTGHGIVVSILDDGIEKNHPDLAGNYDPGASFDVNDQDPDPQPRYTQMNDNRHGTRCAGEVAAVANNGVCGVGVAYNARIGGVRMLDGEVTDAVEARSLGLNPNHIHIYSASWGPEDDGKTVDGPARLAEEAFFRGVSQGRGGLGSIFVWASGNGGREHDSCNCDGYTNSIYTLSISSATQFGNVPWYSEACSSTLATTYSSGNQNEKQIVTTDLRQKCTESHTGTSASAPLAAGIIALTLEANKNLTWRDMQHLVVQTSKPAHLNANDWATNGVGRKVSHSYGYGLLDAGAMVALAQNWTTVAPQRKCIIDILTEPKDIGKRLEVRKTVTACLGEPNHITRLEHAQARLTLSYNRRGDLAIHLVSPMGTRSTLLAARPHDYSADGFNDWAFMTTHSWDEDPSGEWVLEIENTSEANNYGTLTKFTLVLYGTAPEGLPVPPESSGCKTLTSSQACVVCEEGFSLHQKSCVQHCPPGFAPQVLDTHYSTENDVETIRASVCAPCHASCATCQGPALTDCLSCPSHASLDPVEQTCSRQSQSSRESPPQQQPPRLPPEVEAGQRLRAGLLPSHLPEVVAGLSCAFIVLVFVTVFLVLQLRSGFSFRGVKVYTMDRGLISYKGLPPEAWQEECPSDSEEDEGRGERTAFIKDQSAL
- assay method text: Inhibition of human recombinant furin expressed in drosophila schneider 2 cells using pyroGlu-Arg-Thr-Lys-Arg-AMC as substrate after 1 hr
pKi: −log10 of the molar value. Square brackets hold non-standard residues; d marks the D form. Peptide text beside a SMILES is read from it. * marks the point of attachment. Phe(4-guanidino) = N=C(N)Nc1ccc(C[C@H](N)C(=O)O)cc1; X2 = N=C(N)NCCCN(CC(N)=O)N*; Nle = CCCC[C@H](N)C(=O)O
# pKi per entry

| compound | system tested | pKi |
| --- | --- | --- |
| CC(=O)N[C@@H](CC(C)C)C(=O)N[C@@H](CC(C)C)C(=O)N[C@@H](CC(C)C)C(=O)N[C@@H](CC(C)C)C(=O)N[C@@H](CCCNC(=N)N)C(=O)N[C@H](C(=O)N[C@@H](CCCCN)C(=O)NN(CCCNC(=N)N)CC(N)=O)C(C)C (Ac-LLLLRVK-X2) | Furin (Homo sapiens, UniProt P09958) | 5.95 |
| CCCC[C@@H](NC(C)=O)C(=O)N[C@@H](CC(C)C)C(=O)N[C@@H](CC(C)C)C(=O)N[C@@H](CC(C)C)C(=O)N[C@@H](CCCNC(=N)N)C(=O)N[C@H](C(=O)N[C@@H](CCCCN)C(=O)N[C@@H](CCCNC(=N)N)C(N)=O)C(C)C | Furin (Homo sapiens, UniProt P09958) | 6.10 |
| CCCC[C@H](NC(C)=O)C(=O)N[C@@H](CCCC)C(=O)N[C@@H](CCCC)C(=O)N[C@@H](CCCC)C(=O)N[C@@H](CCCNC(=N)N)C(=O)N[C@H](C(=O)N[C@@H](CCCCN)C(=O)N[C@@H](CCCNC(=N)N)C(N)=O)C(C)C | Furin (Homo sapiens, UniProt P09958) | 5.59 |
| CCCC[C@H](NC(=O)[C@H](CC(C)C)NC(C)=O)C(=O)N[C@@H](CC(C)C)C(=O)N[C@@H](CC(C)C)C(=O)N[C@@H](CCCNC(=N)N)C(=O)N[C@H](C(=O)N[C@@H](CCCCN)C(=O)N[C@@H](CCCNC(=N)N)C(N)=O)C(C)C (Ac-L[Nle]LLRVKR-NH2) | Furin (Homo sapiens, UniProt P09958) | 6.01 |
| CC(=O)N[C@@H](CC(C)C)C(=O)N[C@@H](CC(C)C)C(=O)N[C@@H](CC(C)C)C(=O)N[C@@H](CC(C)C)C(=O)N[C@@H](CCCNC(=N)N)C(=O)N[C@H](C(=O)N[C@@H](CCCCN)C(=O)N[C@@H](Cc1ccc(NC(=N)N)cc1)C(N)=O)C(C)C (Ac-LLLLRVK[Phe(4-guanidino)]-NH2) | Furin (Homo sapiens, UniProt P09958) | 4.96 |

---

- system tested: Proprotein convertase subtilisin/kexin type 6 (Homo sapiens)
- assay method text: Inhibition of human recombinant PACE4 expressed in drosophila schneider 2 cells using pyroGlu-Arg-Thr-Lys-Arg-AMC as substrate after 1 hr
Square brackets hold non-standard residues; d marks the D form. Peptide text beside a SMILES is read from it. * marks the point of attachment. NH(4-amidinobenzyl) = N=C(N)c1ccc(CN*)cc1; X2 = N=C(N)NCCCN(CC(N)=O)N*; Nle = CCCC[C@H](N)C(=O)O

| molecule | endpoint unit | Ki |
| --- | --- | --- |
| CCCC[C@H](NC(C)=O)C(=O)N[C@@H](CCCC)C(=O)N[C@@H](CC(C)C)C(=O)N[C@@H](CC(C)C)C(=O)N[C@@H](CCCN=C(N)N)C(=O)N[C@H](C(=O)N[C@@H](CCCCN)C(=O)N[C@@H](CCCN=C(N)N)C(N)=O)C(C)C | µM | 0.057 |
| CCCC[C@H](NC(C)=O)C(=O)N[C@@H](CC(C)C)C(=O)N[C@@H](CC(C)C)C(=O)N[C@@H](CC(C)C)C(=O)N[C@@H](CCCNC(=N)N)C(=O)N[C@H](C(=O)N[C@@H](CCCCN)C(=O)N[C@@H](CCCNC(=N)N)C(N)=O)C(C)C | µM | 0.021 |
| CCCC[C@H](NC(=O)[C@H](CC(C)C)NC(=O)[C@H](CC(C)C)NC(C)=O)C(=O)N[C@@H](CC(C)C)C(=O)N[C@@H](CCCNC(=N)N)C(=O)N[C@H](C(=O)N[C@@H](CCCCN)C(=O)N[C@@H](CCCNC(=N)N)C(N)=O)C(C)C (Ac-LL[Nle]LRVKR-NH2) | µM | 0.385 |
| CCCC[C@H](NC(=O)[C@H](CC(C)C)NC(C)=O)C(=O)N[C@@H](CC(C)C)C(=O)N[C@@H](CC(C)C)C(=O)N[C@@H](CCCNC(=N)N)C(=O)N[C@H](C(=O)N[C@@H](CCCCN)C(=O)N[C@@H](CCCNC(=N)N)C(N)=O)C(C)C (Ac-L[Nle]LLRVKR-NH2) | µM | 0.039 |
| CCCC[C@H](NC(C)=O)C(=O)N[C@@H](CC(C)C)C(=O)N[C@@H](CC(C)C)C(=O)N[C@@H](CCCC)C(=O)N[C@@H](CCCNC(=N)N)C(=O)N[C@H](C(=O)N[C@@H](CCCCN)C(=O)N[C@@H](CCCNC(=N)N)C(N)=O)C(C)C | µM | 0.014 |
| CC(=O)N[C@@H](CC(C)C)C(=O)N[C@@H](CC(C)C)C(=O)N[C@@H](CC(C)C)C(=O)N[C@@H](CC(C)C)C(=O)N[C@@H](CCCNC(=N)N)C(=O)N[C@H](C(=O)N[C@@H](CCCCN)C(=O)NN(CCCNC(=N)N)CC(N)=O)C(C)C (Ac-LLLLRVK-X2) | µM | 0.4 |
| CC(=O)N[C@@H](CC(C)C)C(=O)N[C@@H](CC(C)C)C(=O)N[C@@H](CC(C)C)C(=O)N[C@@H](CC(C)C)C(=O)N[C@@H](CCCN=C(N)N)C(=O)N[C@H](C(=O)N[C@@H](CCCCN)C(=O)NCc1ccc(C(=N)N)cc1)C(C)C (Ac-LLLLRVK-{NH(4-amidinobenzyl)}) | µM | 0.0031 |
| CCCC[C@H](NC(C)=O)C(=O)N[C@@H](CCCC)C(=O)N[C@@H](CCCC)C(=O)N[C@@H](CCCC)C(=O)N[C@@H](CCCNC(=N)N)C(=O)N[C@H](C(=O)N[C@@H](CCCCN)C(=O)N[C@@H](CCCNC(=N)N)C(N)=O)C(C)C | µM | 0.5 |
